target-or-system: human liver glycogen phosphorylase a (HLGPa) (Homo sapiens, UniProt P06737)
Construct: creating a full-length cDNA fused at the 5′ end to codons for methionine-glycine-alanine-histidine; 6xHis tag (leader Met-Gly-Ala-His6-Gly-Gly) (N); made in house; host or cells: E. coli (bacterial expression plasmid pTXK1007LTev)
Sequence (P06737 2-847 limits assumed): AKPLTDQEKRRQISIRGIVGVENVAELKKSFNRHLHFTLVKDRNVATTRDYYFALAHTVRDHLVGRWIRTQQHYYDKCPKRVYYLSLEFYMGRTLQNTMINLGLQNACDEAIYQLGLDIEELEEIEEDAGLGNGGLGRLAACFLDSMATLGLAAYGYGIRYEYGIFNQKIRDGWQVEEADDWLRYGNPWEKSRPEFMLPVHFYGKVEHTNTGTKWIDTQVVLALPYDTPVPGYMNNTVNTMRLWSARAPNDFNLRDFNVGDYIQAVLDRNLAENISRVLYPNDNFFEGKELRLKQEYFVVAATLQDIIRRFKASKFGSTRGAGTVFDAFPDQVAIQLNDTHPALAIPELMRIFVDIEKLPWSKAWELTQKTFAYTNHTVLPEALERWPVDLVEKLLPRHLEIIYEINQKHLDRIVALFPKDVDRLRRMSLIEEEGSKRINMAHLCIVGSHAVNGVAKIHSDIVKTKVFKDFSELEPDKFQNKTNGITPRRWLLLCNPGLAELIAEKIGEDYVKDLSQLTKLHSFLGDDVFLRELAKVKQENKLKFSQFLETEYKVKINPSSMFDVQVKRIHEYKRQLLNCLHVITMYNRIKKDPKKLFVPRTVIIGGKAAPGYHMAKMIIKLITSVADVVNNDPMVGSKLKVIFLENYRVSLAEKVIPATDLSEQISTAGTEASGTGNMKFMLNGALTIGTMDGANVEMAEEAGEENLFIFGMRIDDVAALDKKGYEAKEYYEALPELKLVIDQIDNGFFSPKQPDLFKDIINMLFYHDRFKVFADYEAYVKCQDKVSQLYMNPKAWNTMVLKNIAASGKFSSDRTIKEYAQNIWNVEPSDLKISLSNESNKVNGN
protocol-text: Human liver glycogen phosphorylase a enzymatic activity assay (coupled, fluorescent resorufin readout, with and without 10 mM glucose)
Assay type: biochemical
recorded-conditions: human liver glycogen phosphorylase a; table does not say whether with or without 10 mM glucose
// classify: if (IC50 < 2000 nM) MET else NOT MET

structure-notation | qualitative-label
Cc1cc(C)c(NC(=O)Nc2cc3ccccc3cc2C(=O)N[C@H](CC(=O)OC(C)(C)C)C2CCCCC2)c(C)c1 | NOT MET
Cc1cc(C)c(NC(=O)Nc2nc3ccccc3cc2C(=O)N[C@H](C(=O)O)C2CCCCC2)c(C)c1 | NOT MET
COc1ccc(-c2ccc(C(=O)N[C@H](C(=O)O)[C@@H](C)OC(C)(C)C)c(NC(=O)Nc3c(C)cc(C)cc3C)c2)cc1F | MET
O=C(Nc1cc(F)ccc1C(=O)N[C@H](C(=O)O)C1CCCCC1)Nc1c(Cl)cc(OC(F)(F)F)cc1Cl | MET
O=C(Nc1cc2ccccc2cc1C(=O)N[C@H](C(=O)O)C1CCCC1)Nc1c(Cl)cc(Cl)cc1Cl | MET

Proceed to the following item.
Lab log: compare recorded IC50 with 2000 nM; is it strictly lower for Cc1onc(-c2ccccc2)c1NC(=O)Nc1cc2ccccc2cc1C(=O)N[C@H](C(=O)O)C1CCCCC1 ?
NOT MET

Just for reference, patent US20070249670A1 is where these values come from.
